Record form. Attribute: pIC50. Fill in for each entry.
# assayedSystem: MCL-1/Bim interaction (recombinant human MCL-1 protein, residues 171-327; biotinylated human Bim peptide, residues 51-76) (Homo sapiens (Human), UniProt Q07820)
# Sequence (Q07820 171-327): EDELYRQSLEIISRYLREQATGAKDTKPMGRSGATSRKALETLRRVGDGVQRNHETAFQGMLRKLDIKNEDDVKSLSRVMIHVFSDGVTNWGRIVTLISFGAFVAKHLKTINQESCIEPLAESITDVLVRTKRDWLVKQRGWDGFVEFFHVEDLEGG
# protocol: MCL-1/Bim Binding AlphaLISA Assay
# protocolConditions: 0.0625 nM 6xHis-Mcl-1 (171-327), 0.0625 nM biotinylated-Bim peptide
Numbers only, as −log10 of the molar value.

- moleculeSmiles: "CO[C@H]1/C=C/C[C@H](C)C[S@@](=O)(NC(=O)c2cn(C)nc2OCC2OCCO2)=NC(=O)c2ccc3c(c2)N(C[C@@H]2CC[C@H]21)C[C@@]1(CCCc2cc(Cl)ccc21)CO3"
  pIC50: 10.09
- moleculeSmiles: "CCn1ccc(CCC(=O)N[S@@]2(=O)=NC(=O)c3ccc4c(c3)N(C[C@@H]3CC[C@H]3[C@@H](OC)/C=C/C[C@H](C)[C@H]2C)C[C@@]2(CCCc3cc(Cl)ccc32)CO4)n1"
  pIC50: 10.27
- moleculeSmiles: "COC[C@@H]1CN(C(=O)N[S@@]2(=O)=NC(=O)c3ccc4c(c3)N(C[C@@H]3CC[C@H]3[C@@H](OC)/C=C/C[C@H](C)C2)C[C@@]2(CCCc3cc(Cl)ccc32)CO4)CCO1"
  pIC50: 10.28

Provide each entry's pIC50 from the list below.
1. CO[C@H]1/C=C/CCC[S@@](=O)(NC(=O)CCC(F)(F)F)=NC(=O)c2ccc3c(c2)N(C[C@@H]2CC[C@H]21)C[C@@]1(CCCc2cc(Cl)ccc21)CO3
2. CO[C@H]1/C=C/C[C@H](C)C[S@@](=O)(NC(=O)c2cn(C)nc2C(F)F)=NC(=O)c2ccc3c(c2)N(C[C@@H]2CC[C@H]21)C[C@@]1(CCCc2cc(Cl)ccc21)CO3
3. CNCCO[C@H]1/C=C/[C@H](OC)[C@@H]2CC[C@H]2CN2C[C@@]3(CCCc4cc(Cl)ccc43)COc3ccc(cc32)C(=O)N=[S@](=O)(NC(=O)c2cn(C)nc2OC)C[C@H]1C
4. CCCn1cc(C(=O)N[S@@]2(=O)=NC(=O)c3ccc4c(c3)N(C[C@@H]3CC[C@H]3[C@@H](OC)/C=C/C[C@H](C)C2)C[C@@]2(CCCc3cc(Cl)ccc32)CO4)cn1
5. CO[C@H]1/C=C/C[C@H](C)C[S@@](=O)(NC(=O)N2CC(OC)(c3ncnn3C)C2)=NC(=O)c2ccc3c(c2)N(C[C@@H]2CC[C@H]21)C[C@@]1(CCCc2cc(Cl)ccc21)CO3
6. CC#CC(=O)N[S@@]1(=O)=NC(=O)c2ccc3c(c2)N(C[C@@H]2CC[C@H]2[C@@H](OC)/C=C/CCC1)C[C@@]1(CCCc2cc(Cl)ccc21)CO3
7. CO[C@H]1/C=C/C[C@H](C)C[S@@](=O)(NC(=O)N2CC(OC)(C(F)(F)F)C2)=NC(=O)c2ccc3c(c2)N(C[C@@H]2CC[C@H]21)C[C@@]1(CCCc2cc(Cl)ccc21)CO3
8. COc1nn(C)cc1C(=O)N[S@@]1(=O)=NC(=O)c2ccc3c(c2)N(C[C@@H]2CC[C@H]2[C@@H](OC(=O)CCN2CCOCC2)/C=C/C[C@H](C)C1)C[C@@]1(CCCc2cc(Cl)ccc21)CO3

1. 9.05
2. 9.93
3. 10.32
4. 9.63
5. 10.21
6. 8.54
7. 10.02
8. 10.59

Which pIC50 is listed for CCC(=O)N[S@]1(=O)=NC(=O)c2ccc3c(c2)N(C[C@@H]2CC[C@H]2[C@@H](OCCN2CCOCC2)/C=C/CCC1)C[C@@]1(CCCc2cc(Cl)ccc21)CO3 ?
8.57

Values from patent US10703733B2
